pKi: −log10 of the molar value.
Target or system Stromelysin (Homo sapiens, UniProt P08254); recorded quantity pKi.
Quantity: pKi

[
  {
    "Smiles Record": "COC(=O)[C@H](COC(C)(C)C)NC(=O)Nc1n[nH]c(=S)s1",
    "System": "Stromelysin (Homo sapiens, UniProt P08254)",
    "Measured Number": 5.17
  },
  {
    "Smiles Record": "CNC(=O)[C@@H](NC(=O)Nc1n[nH]c(=S)s1)[C@@H](C)OCc1ccccc1",
    "System": "Stromelysin (Homo sapiens, UniProt P08254)",
    "Measured Number": 6.12
  }
]
